- Tested on: U251 CNS
- method-notes: NCI-60 one-dose screen, 48 h (100 = growth as untreated, 0 = no growth, -100 = all killed)
- study-conditions: 10 µM unless noted
The panel holds about 83,000 compounds, 20% with a hit somewhere; the sample as a whole holds those more often.
endpoint-name: growth (%)
Numeric answer only, unit % assumed.

### Prompt Lab request: please report growth under test system U251 CNS for `CC1(C)CN(CCNc2nccc(-c3c(-c4cccc(O)c4)nc4sccn34)n2)S(=O)(=O)N1`
### Response 74

### Prompt Lab request: please report growth under test system U251 CNS for `O=C(c1ccc(OCCN2CCCCC2)cc1)c1c(-c2ccc(O)cc2)sc2cc(O)ccc12`
### Response 64.9

### Prompt Lab request: please report growth under test system U251 CNS for CC1OC(n2c3ccccc3c3c4c(c5c6ccccc6[nH]c5c32)C(=O)N(CCN[C@H]2CCC[C@@H]2N)C4=O)CC(O)C1O (stereo partly drawn)
### Response 14.5

FYI, the data here is from PubChem BioAssay (NCI).
